Molecular target: T1, neural epidermal growth factor-like like 2 (NELL2), C-terminally 6xHis-tagged recombinant (UniProt Q61220 25-819)
T1 construct: NELL2, secreted protein; also called purified recombinant NELL2; source: human 293-F cells, transiently expressed, purified from conditioned medium (ammonium sulphate, Ni-NTA, PD-10)
T1 sequence (looked up): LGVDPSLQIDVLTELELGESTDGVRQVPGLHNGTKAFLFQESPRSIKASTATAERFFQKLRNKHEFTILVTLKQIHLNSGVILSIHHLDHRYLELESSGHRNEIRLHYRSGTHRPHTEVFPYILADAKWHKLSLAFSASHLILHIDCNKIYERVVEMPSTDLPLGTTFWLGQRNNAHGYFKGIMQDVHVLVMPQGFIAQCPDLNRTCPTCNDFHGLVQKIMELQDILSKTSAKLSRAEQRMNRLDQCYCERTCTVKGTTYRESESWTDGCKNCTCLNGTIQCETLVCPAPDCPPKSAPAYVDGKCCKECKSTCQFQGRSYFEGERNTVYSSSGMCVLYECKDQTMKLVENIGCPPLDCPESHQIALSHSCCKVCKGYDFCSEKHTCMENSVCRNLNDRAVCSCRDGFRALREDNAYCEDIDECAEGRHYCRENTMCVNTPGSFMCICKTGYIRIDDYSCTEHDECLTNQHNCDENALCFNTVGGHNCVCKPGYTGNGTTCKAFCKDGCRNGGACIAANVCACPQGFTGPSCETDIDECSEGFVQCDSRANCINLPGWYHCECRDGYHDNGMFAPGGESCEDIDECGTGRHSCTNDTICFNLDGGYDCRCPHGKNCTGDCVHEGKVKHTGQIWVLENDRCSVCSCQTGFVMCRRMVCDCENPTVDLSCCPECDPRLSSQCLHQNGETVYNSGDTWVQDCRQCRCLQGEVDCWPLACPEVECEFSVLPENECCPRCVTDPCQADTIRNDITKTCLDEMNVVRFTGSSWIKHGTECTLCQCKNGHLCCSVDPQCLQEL
Assay: SPR; purified NELL2 immobilised on series S sensor chip CM5; purified NICOL in PBS as analyte; Biacore T200
Conditions: both partners purified
Readout: Kd (nM)
The answer is to be given in nM; state only the numeric part.

Suppose we examine the binder NELL2-interacting cofactor for lumicrine signalling (NICOL), 6xHis-tagged recombinant (natural protein, mouse, UniProt Q3UR78 29-90, looked up, mouse NICOL (predicted gene Gm1673, ortholog of human C4orf48), small secreted protein; cDNA encoding mouse NICOL followed by 6xHis; purified from conditioned medium, so without its signal peptide; also called purified recombinant NICOL protein; source: human 293-F cells, transiently expressed, purified from conditioned medium (ammonium sulphate, Ni-NTA, PD-10)) EPATGSAVPAQSRPCVDCHAFEFMQRALQDLRKTAYSLDARTETLLLQAERRALCACWPAGR ; what Kd value has been reported?
87
